Molecular target: human GPR84 receptor (Homo sapiens, UniProt Q9NQS5)
Sequence (Q9NQS5 whole entry): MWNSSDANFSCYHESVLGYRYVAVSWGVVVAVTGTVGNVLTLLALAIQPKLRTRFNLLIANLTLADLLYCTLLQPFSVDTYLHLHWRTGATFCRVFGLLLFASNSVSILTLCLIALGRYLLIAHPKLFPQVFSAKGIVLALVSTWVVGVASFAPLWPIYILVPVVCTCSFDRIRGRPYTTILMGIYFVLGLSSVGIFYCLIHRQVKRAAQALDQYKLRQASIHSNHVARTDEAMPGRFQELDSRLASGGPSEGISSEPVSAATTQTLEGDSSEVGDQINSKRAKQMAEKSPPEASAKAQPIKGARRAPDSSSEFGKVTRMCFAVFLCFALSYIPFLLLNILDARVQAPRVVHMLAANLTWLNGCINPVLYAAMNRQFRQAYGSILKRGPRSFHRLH
Assay: Gαi biosensor BRET assay in HEK293 cells (antagonism of ZQ-16)
Settings: HEK293 cells, antagonism of 200 nmol/L ZQ-16
I'd be grateful if you could share measured IC50 for these entries.

Record IC50 per entry; entries follow.
1. COC(c1cn(CC2CC(C)(C)CO2)nn1)c1cc(C#CC2CC2)ccc1C (centres unmarked)
2. Cc1ccc(C#CC2CC2)cc1-n1nc(CC2CCCO2)oc1=O (centres unmarked)
3. Cc1cc(N2CC3(CCCN3c3ccccn3)C2)ccc1-c1cn(CC2OCC(C)(C)CO2)nn1
4. CC(C)Oc1cc(C#CC2CC2)cnc1-c1cn(CC2OCC(C)(C)CO2)nn1
5. Cc1cc(N2CC(C)(OCc3ccccn3)C2)ccc1-c1cn(CC2CCCCO2)nn1 (centres unmarked)
6. Cc1ccc(C#CC2CC2)cc1-n1nc(CC2CCCCO2)oc1=O (centres unmarked)
7. CCc1cc(C#CCNc2cccnc2)cnc1-c1cn(C[C@H]2CCCCO2)nn1

Out:
["1000 to 3000 nM", "300 to 1000 nM", "1000 to 3000 nM", "≤ 300 nM", "300 to 1000 nM", "1000 to 3000 nM", "≤ 300 nM"]

Give measured IC50 for every item shown.
1. Cc1cc(C#CC2CC2)ccc1-c1cn(CC2CCC(C)(C)CO2)nn1 (centres unmarked)
2. Cc1cc(C#CC2CC2)cnc1-c1cn(CC2CCCCO2)nn1 (centres unmarked) [Compound I-866]
3. Cc1cc(N2CCN(Cc3ccccn3)CC2)ccc1-c1cn(CC2CCC(C)(C)CO2)nn1 (centres unmarked)
4. Cc1cc(C#CCNCc2ccccc2)ccc1-c1cn(CC2CCCCO2)nn1 (centres unmarked)
5. CN(C)c1cc(N2CC(CO)(CO)C2)ccc1-c1cn(CC2OCC(C)(C)CO2)nn1

Out:
1000 to 3000 nM
1000 to 3000 nM
≤ 300 nM
300 to 1000 nM
300 to 1000 nM

# map each molecule to its IC50
1. Cc1ccc(C#CC2CC2)cc1N(C)c1cn(CC2OCC(C)(C)CO2)nn1
2. CN(C)c1cc(N2CC(C)(CO)C2)ccc1-c1cn(C[C@@H]2CC(C)(C)CO2)nn1 (stereo in doubt)
3. CN(C)c1cc(N2CC3(COC3)C2)ccc1-c1cn(CC2OCC(C)(C)CO2)nn1
4. Cc1ccc(C#CC2CC2)cc1Cc1cn(C[C@H]2CCCCO2)nn1

Out:
1: 300 to 1000 nM; 2: ≤ 300 nM; 3: 300 to 1000 nM; 4: 300 to 1000 nM

In: Could you tell me which IC50 is on file for Cc1ccc(C#CC2CC2)cc1C(=O)c1cn(CC2CCCCO2)nn1 (centres unmarked) ?
Out: 300 to 1000 nM

----------
Molecular target: human GPR84 receptor (Homo sapiens)
Construct: host or cells: HEK293, transient transfection
Assay: Gαi biosensor BRET assay in HEK293 cells (antagonism of ZQ-16)
Format: cell-based
Conditions: HEK293, single concentration 10 μM (designated F)
ASSAY METRIC: inhibition at 10 µM

Guide cases for inhibition at 10 µM, answers given:
{"COMPOUND": "Cc1cc(CO)ccc1-c1cn(CC2CCCCO2)nn1 (centres unmarked) [Compound I-468]", "ASSAY SYSTEM": "human GPR84 receptor (Homo sapiens)", "inhibition at 10 µM": "25 to 50%"}
{"COMPOUND": "Cc1cc(C#CCN2CCC(F)(F)CC2)cnc1-c1cn(CC2CCCCO2)nn1 (centres unmarked) [Compound I-250]", "ASSAY SYSTEM": "human GPR84 receptor (Homo sapiens)", "inhibition at 10 µM": "50 to 75%"}
{"COMPOUND": "CC(C)Oc1cc(C#CCNc2ccccc2)cnc1-c1cn(CC2CC(C)(C)CO2)nn1 (centres unmarked) [Compound I-526]", "ASSAY SYSTEM": "human GPR84 receptor (Homo sapiens)", "inhibition at 10 µM": "50 to 75%"}
{"COMPOUND": "Cc1cc(C#CCN2CC(C)(C)C2)cnc1-c1cn(CCc2ncccn2)nn1 [Compound I-717]", "ASSAY SYSTEM": "human GPR84 receptor (Homo sapiens)", "inhibition at 10 µM": "≤ 25%"}
{"COMPOUND": "CC1(NCc2ccccn2)CN(c2ccc(-c3cn(CC4CCCCO4)nn3)c(CC(F)(F)F)c2)C1 (centres unmarked) [Compound I-744]", "ASSAY SYSTEM": "human GPR84 receptor (Homo sapiens)", "inhibition at 10 µM": "> 75%"}

# return inhibition at 10 µM for each item in the list
1. Cc1cc(N2CC(C)(CNS(C)(=O)=O)C2)ccc1-c1cn(CC2CCCCO2)nn1 (centres unmarked) [Compound I-448]
2. CC1(C)CN(c2ccc(-c3cn(CC4CCCCO4)nn3)c(C(F)(F)F)c2)C1 (centres unmarked) [Compound I-255]
3. Cc1cc(C#CC2CC2)ccc1-c1cn(CC2CCCC(=O)N2)nn1 (centres unmarked) [Compound I-516]
4. Cc1cc(N2CCCC(N(C)Cc3ccccc3)C2)ccc1-c1cn(CC2CCCCO2)nn1 (centres unmarked) [Compound I-171]

Out:
["50 to 75%", "25 to 50%", "≤ 25%", "> 75%"]

# map each compound to its inhibition at 10 µM
1. Cc1cc(N2CC3(CCN(C)C3)C2)ccc1-c1cn(CC2CCCCO2)nn1 (centres unmarked) [Compound I-168]
2. Cc1cc(N2CC(C)(C)C2)cnc1-c1cn(CC2CCCCO2)cn1 (centres unmarked) [Compound I-609]

Out:
1. ≤ 25%
2. 50 to 75%

----------
Molecular target: human GPR84 receptor (Homo sapiens, UniProt Q9NQS5)
Construct: host or cells: HEK293, transient transfection
Experiment: Gαi biosensor BRET assay in HEK293 cells (antagonism of ZQ-16)
Format: cell-based
Settings: HEK293, single concentration 10 μM (designated F)
Assignment: determine reported inhibition at 10 µM for the given compounds.

{"COMPOUND": "Cc1cc(NS(C)(=O)=O)ccc1-c1cn(CC2CCCCO2)nn1 (centres unmarked)", "MEASURED": "≤ 25%"}
{"COMPOUND": "Cc1cc(C#CC2CC2)cnc1-c1cn(Cc2ncccn2)nn1", "MEASURED": "≤ 25%"}
{"COMPOUND": "Cc1cc(N2CC(C)(OCc3ccccn3)C2)ccc1-c1cn(CC2CCCCO2)nn1 (centres unmarked)", "MEASURED": "> 75%"}
{"COMPOUND": "COC(=O)NCC#Cc1cnc(-c2cn(CC3CCCCO3)nn2)c(C)c1 (centres unmarked)", "MEASURED": "> 75%"}

In: # input compound: Cc1cc(C#CC2CC2)cnc1-c1cn(CC2CCCCO2)cn1 (centres unmarked) ; wanted: its inhibition at 10 µM
Out: > 75%

----------
Target: human GPR84 receptor (Homo sapiens)
Construct: host or cells: HEK293, transient transfection
Assay: Gαi biosensor BRET assay in HEK293 cells (antagonism of ZQ-16)
Type: cell-based
Conditions: HEK293, single concentration 10 μM (designated F)
ASSAY METRIC: inhibition at 10 µM

// for each molecule in input: emit inhibition at 10 µM
1. O=c1oc(CC2CCCCO2)nn1Cc1cccc(C#CC2CC2)c1 (centres unmarked) [Compound I-18]
2. Cc1cc(C#CC2CC2)ccc1-c1cn(Cc2nccn2C)nn1 [Compound I-517]
3. COc1cc(C#CC2CC2)ccc1-c1cn(CC2CCCCO2)nn1 (centres unmarked) [Compound I-82]
4. Cc1cc(C#CCN2CC(C)(C)C2)cnc1-c1cn(Cc2ncccn2)nn1 [Compound I-473]
5. CN(C)c1cc(N2CC3(COC3)C2)ccc1-c1cn(CC2OCC(C)(C)CO2)nn1 [Compound I-756]
6. COC(=O)C1(C)CN(c2ccc(-c3cn(CC4CCCCO4)nn3)c(C)c2)C1 (centres unmarked) [Compound I-409]
7. Cc1cc(C#CCNc2ccccc2)ccc1-c1cn(C[C@H]2CCCCO2)nn1 [Compound I-166]
8. Cc1cc(N2CC(C)(C)C2)ccc1-c1cn(CC2CCCCO2)nn1 (centres unmarked) [Compound I-864]

Out:
50 to 75%
≤ 25%
25 to 50%
≤ 25%
> 75%
25 to 50%
> 75%
25 to 50%

----------
Target: human GPR84 receptor (Homo sapiens, UniProt Q9NQS5)
Construct: host or cells: HEK293, transient transfection
Assay: Gαi biosensor BRET assay in HEK293 cells (antagonism of ZQ-16)
Format: cell-based
Conditions: HEK293, single concentration 10 μM (designated F)
Would you mind telling me the reported inhibition at 10 µM of each entry?

{"MOLECULE": "Cc1cc(N2CCN(Cc3ccccn3)CC2)ccc1-c1cn(C[C@H]2CCC(F)(F)CO2)nn1 (stereo in doubt)", "inhibition at 10 µM": "50 to 75%"}
{"MOLECULE": "Cc1cc(C#CC2CC2)ccc1-c1nnn(CC2CCCCO2)n1 (stereo not drawn)", "inhibition at 10 µM": "≤ 25%"}
{"MOLECULE": "Cc1cc(N2CCCC(N(C)C)C2)ccc1-c1cn(CC2CCCCO2)nn1 (stereo not drawn)", "inhibition at 10 µM": "≤ 25%"}
{"MOLECULE": "Cc1cc(C#CCN2CCCN(C)CC2)ccc1-c1cn(CC2CCCCO2)nn1 (stereo not drawn)", "inhibition at 10 µM": "≤ 25%"}
{"MOLECULE": "CCc1cc(C#CCN2CCC(F)(F)CC2)cnc1-c1cn(CC2CCCCO2)nn1 (stereo not drawn)", "inhibition at 10 µM": "> 75%"}
{"MOLECULE": "Cc1cc(C#CC2CC2)ccc1-c1ccn(CC2CCCCO2)n1 (stereo not drawn)", "inhibition at 10 µM": "≤ 25%"}
{"MOLECULE": "CCc1cc(C#CC2CC2)cnc1-c1cn(CC2CCOCC2)nn1", "inhibition at 10 µM": "50 to 75%"}
{"MOLECULE": "Cc1cc(N2CCC(CO)CC2)ccc1-c1cn(CC2CCCCO2)nn1 (stereo not drawn)", "inhibition at 10 µM": "50 to 75%"}
{"MOLECULE": "Cc1cc(N2C3CCC2CN(Cc2ccccn2)C3)ccc1-c1cn(CC2CCCCO2)nn1 (stereo not drawn)", "inhibition at 10 µM": "25 to 50%"}
{"MOLECULE": "Cc1ccc(C#CC2CC2)cc1-c1nnc(CC2CCCCO2)o1 (stereo not drawn)", "inhibition at 10 µM": "50 to 75%"}

Report inhibition at 10 µM for each item below.
1. Cc1cc(N2CCN(Cc3ccccn3)CC2)ccc1-c1cn(CC2CC(C)(C)O2)nn1 (stereo not drawn)
2. Cc1cc(C#CC2CC2)ccc1-c1cn(CC2CNC(=O)O2)nn1 (stereo not drawn)
3. Cc1cccc(-c2cn(CC#Cc3ccc(-c4cn(CC5CCCCO5)nn4)c(C)c3)nn2)c1 (stereo not drawn)
4. CC(C)Oc1cc(N2CC(C)(CO)C2)cnc1-c1cn(CC2CC(C)(C)CO2)nn1 (stereo not drawn)
5. Cc1ccc(C#CC2CC2)cc1Sc1cn(CC2OCC(C)(C)CO2)nn1
6. Clc1ccc(C#CC2CC2)cc1-c1cn(CC2CCCCO2)nn1 (stereo not drawn)

Out:
1. > 75%
2. ≤ 25%
3. > 75%
4. > 75%
5. > 75%
6. ≤ 25%

Report inhibition at 10 µM for every entry below.
1. Cc1cc(N2CCN([C@H](C)c3ccccn3)CC2)ccc1-c1cn(C[C@H]2CCCCO2)nn1
2. COCC#Cc1ccc(-c2cn(CC3OCC(C)(C)CO3)nn2)c(N(C)C)c1

Out:
25 to 50%
> 75%

Origin of values: patent US12617777B2
